Molecular target: T1, cMSLN-His-Avi (cynomolgus, single biotin on the Avi tag in the biotinylated form)
T1 construct: Monomeric; also called cyno MSLN-His-Avi; cMSLN-Avi-His
T1 chain: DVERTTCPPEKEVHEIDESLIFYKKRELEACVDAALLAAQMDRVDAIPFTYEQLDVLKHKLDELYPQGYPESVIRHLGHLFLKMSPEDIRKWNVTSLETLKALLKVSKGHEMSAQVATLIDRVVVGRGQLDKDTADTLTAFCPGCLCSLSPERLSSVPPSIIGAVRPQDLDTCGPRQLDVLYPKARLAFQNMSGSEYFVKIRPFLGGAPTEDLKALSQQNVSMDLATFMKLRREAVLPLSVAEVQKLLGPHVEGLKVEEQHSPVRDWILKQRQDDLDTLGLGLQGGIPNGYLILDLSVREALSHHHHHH
Test: SPR, mAb2 captured on Protein G, cMSLN-His-Avi in solution
propertyName: Kd
# number then unit; no other words

Record excerpt, results attached:
FS22-172-003-AA/FS28-024-060 (bispecific antibody, human IgG1, kappa, L234A L235A, V domains shown, IgG1 mAb^2 with LALA) VH: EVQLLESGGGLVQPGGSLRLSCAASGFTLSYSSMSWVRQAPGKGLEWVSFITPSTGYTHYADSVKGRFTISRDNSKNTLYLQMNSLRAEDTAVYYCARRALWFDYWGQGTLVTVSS VL: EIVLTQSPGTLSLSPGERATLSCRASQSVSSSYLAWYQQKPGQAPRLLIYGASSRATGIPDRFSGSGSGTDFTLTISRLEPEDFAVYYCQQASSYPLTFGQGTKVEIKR: 0.23 µM
FS22-172-003-AA/FS28-024-053 (bispecific antibody, human IgG1, kappa, L234A L235A, V domains shown, IgG1 mAb^2 with LALA) VH: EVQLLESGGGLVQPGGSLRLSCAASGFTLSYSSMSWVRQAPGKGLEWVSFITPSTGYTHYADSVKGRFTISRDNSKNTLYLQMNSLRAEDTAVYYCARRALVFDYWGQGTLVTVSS VL: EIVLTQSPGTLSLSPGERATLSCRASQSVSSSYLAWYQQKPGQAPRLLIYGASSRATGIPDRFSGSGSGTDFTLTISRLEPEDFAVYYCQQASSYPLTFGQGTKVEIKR: 0.166 µM

Switching to the query record.
Problem: Could you share which Kd value was measured for FS22-172-003-AA/FS28-256-012 (bispecific antibody, human IgG1, kappa, L234A L235A, V domains shown, IgG1 mAb^2 with LALA) VH: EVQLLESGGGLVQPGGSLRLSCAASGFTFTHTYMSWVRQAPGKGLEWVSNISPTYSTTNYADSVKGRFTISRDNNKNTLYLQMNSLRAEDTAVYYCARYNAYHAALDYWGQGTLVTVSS VL: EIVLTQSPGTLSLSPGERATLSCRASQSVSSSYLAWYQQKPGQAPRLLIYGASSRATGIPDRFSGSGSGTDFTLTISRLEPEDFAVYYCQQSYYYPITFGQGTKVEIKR ?
Solution: 0.712 µM
